Recorded values, source PubChem BioAssay (NCI).

test system: OVCAR-8 ovarian; assay: NCI tumour cell line growth inhibition, 48 h
property label: TGI

Q: Requested read-out TGI, target or system OVCAR-8 ovarian, entry `CCOC(=O)c1cn2c(ccc3sc4ccccc4c(=O)c32)n1`
Result: > 100 µM

Q: Requested read-out TGI, target or system OVCAR-8 ovarian, entry `O=C1CCCC2=C1CC1=C(CCCC1=O)N2c1cccc([N+](=O)[O-])c1`
Result: > 100 µM

Q: Requested read-out TGI, target or system OVCAR-8 ovarian, entry O=S(=O)(/N=C(\NO)Nc1ccc(Cl)cc1)C1CC=C(c2ccon2)S1 (stereo not given)
Result: > 100 µM

Q: Requested read-out TGI, target or system OVCAR-8 ovarian, entry `Oc1c2c(c(O)c3ccccc13)C1(N=N2)c2ccccc2Oc2ccccc21`
Result: 11.1 µM

Q: Requested read-out TGI, target or system OVCAR-8 ovarian, entry `CCCCc1c2c(nc3c1CC/C(=C\c1ccc([N+](=O)[O-])cc1)C3=O)CCCC2`
Result: 3.47 µM

Q: Requested read-out TGI, target or system OVCAR-8 ovarian, entry `CN(C)/C=C/c1c2c(nc3ccccc13)C(=O)c1ccccc1C2=O`
Result: 7.71 µM

Q: Requested read-out TGI, target or system OVCAR-8 ovarian, entry COC(=O)c1ccc(C)cc1CC1Cc2c(C)cccc2C1=O (stereo not given)
Result: > 68.8 µM

Q: Requested read-out TGI, target or system OVCAR-8 ovarian, entry `CN(C)c1ccc(C(=C2C=CC(=[N+](C)C)C=C2)c2ccccc2Cl)cc1`
Result: 1.66 µM

Q: Requested read-out TGI, target or system OVCAR-8 ovarian, entry O=C1CCC2(c3ccccc3)Nc3ccc(Cl)cc3N12 (stereo not given)
Result: > 100 µM

Q: Requested read-out TGI, target or system OVCAR-8 ovarian, entry `Cc1cc(C)c(C(=O)/C=C/c2ccccc2)c(C)c1`
Result: 30 µM

---

Exercise: for every item that follows, state its recorded GI50.
tested on: SK-MEL-2 melanoma; test: NCI tumour cell line growth inhibition, 48 h

Q: Requested read-out GI50, target or system SK-MEL-2 melanoma, entry `CC1(C)N=C(N)N=C(N)N1c1ccc(Cl)c(Cl)c1`
Result: > 100 µM

Q: Requested read-out GI50, target or system SK-MEL-2 melanoma, entry `O=C(c1ccccc1)c1nn(-c2ccccc2)c2nc3nc(-c4ccccc4)cc(=O)n3nc12`
Result: 23.8 µM

Q: Requested read-out GI50, target or system SK-MEL-2 melanoma, entry `COc1ccc2nccc(/C=C/c3ccnc4ccc(OC)cc34)c2c1`
Result: > 53.6 µM

Q: Requested read-out GI50, target or system SK-MEL-2 melanoma, entry `CN1CCN(c2ccc(C(=O)Nc3cccc(C#Cc4cccc5[nH]nc(N)c45)c3)cc2C(F)(F)F)CC1`
Result: 1.7 µM

Q: Requested read-out GI50, target or system SK-MEL-2 melanoma, entry CC12CCC(O)CC1=CCC1C2CCC2(C)C(c3cccnc3)=CCC12 (stereo not given)
Result: > 100 µM

Q: Requested read-out GI50, target or system SK-MEL-2 melanoma, entry COc1cc(NC(C)CCCN)c2ncccc2c1Sc1ccc(Cl)cc1 (stereo not given)
Result: 1.85 µM

Q: Requested read-out GI50, target or system SK-MEL-2 melanoma, entry `COc1ccc(-c2nnc(Nc3nc(O)c(C4=c5cc(F)ccc5=NC4=O)s3)o2)cc1`
Result: 33.7 µM

Q: Requested read-out GI50, target or system SK-MEL-2 melanoma, entry `CC/C=C\C[C@H](O)C/C=C1/C(=O)C=C[C@@H]1C/C=C\CCCC(=O)NC`
Result: 2.24 µM

Q: Requested read-out GI50, target or system SK-MEL-2 melanoma, entry `CC(=O)c1ccc2c(c1)N(CCCN(C)C)c1ccccc1S2`
Result: 18.1 µM

Q: Requested read-out GI50, target or system SK-MEL-2 melanoma, entry `COc1ccc(C#CC2=C(c3cc(OC)c(OC)c(OC)c3)C(=O)OC2)cc1`
Result: 42.5 µM
